Target: T1, human ICOS (human, UniProt Q9Y6W8 21-199)
T1 construct: The cell that carries it is named under assay; also called huICOS; CD278
T1 sequence: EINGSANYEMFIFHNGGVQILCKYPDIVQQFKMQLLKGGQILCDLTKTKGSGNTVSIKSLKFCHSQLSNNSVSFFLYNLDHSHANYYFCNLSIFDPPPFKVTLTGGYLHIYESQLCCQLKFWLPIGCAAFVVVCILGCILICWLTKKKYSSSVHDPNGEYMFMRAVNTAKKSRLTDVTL
Assay: flow cytometry on SR cells expressing human ICOS, PE-labelled secondary antibody, MFI
Catalogue of EC50 (read off the curve) values

Worked cases, answers included:
{"binder": "Molecule 8 (rbIgG of 1167) (antibody, V domains shown, Rabbit IgG format, from transgenic rabbit; also called ICOS (1167); clone 1167) VH: EVRLLESGGGLVQPGGSLRLSCAASGFTFNTYAVHWVRQAPGKGLEWVSGIGGSGVRTYYADSVKGRLTISRDNSKNTLYLQMNSLRAEDTAIYFCAKDIYVADFTGYAFDIWGQGTMVTVSS VL: DIQMTQSPSSVSASVGDRVTITCRASQGINNFLAWYQQKPGKAPKLLIYDASSLQSGVPSRFAGSGSGTDFTLTISSLQPEDFATYYCQQYNFYPLTFGGGTMVEIKR", "EC50 (read off the curve)": "~1 nM"}
{"binder": "Molecule 14 (muIgG of 009) (antibody, V domains shown, Mouse IgG purified from hybridoma; also called ICOS (009); clone 009) VH: EVRLDETGGGVVQPGRPMELSCVASGFTFSDYWMNWVRQSPEKGLEWVAQIRNKPYNYETYYSDSVKGRFTISRDDSKSRVYLQMNNLRAEDMGIYYCTWPRLRSSDWHFDVWGAGTTVTVSS VL: AIQMTQSPSSLSASLGGEVTITCKASQDINKNIAWYQHKPGRGPRLLIWYTSTLQTGIPSRFSGSGSGRDYSFTISNLEPEDFATYYCLQFDNLYTFGSGTKLEIR", "EC50 (read off the curve)": "~1 nM"}
{"binder": "Molecule 18 (rbIgG of 1138) (antibody, V domains shown, Rabbit IgG format; also called ICOS (1138); clone 1138) VH: QSLEESGGDLVKPGASLTLTCTASGFDLSSYYYMCWVRQAPGKGLEWIACIYADIYGGTTHYASWAKGRFTISKTSSTTVTLQMTSLTAADTATYFCAREDGSRYGGSGYYNLWGPGTLVTVSS VL: ALVMTQTPSSVSAAVGGTVTINCQASQNIYSNLAWYQQKPGQPPKLLIYAASYLTSGVSSRFKGSGAGTQFTLTISGVECADAATYYCQQGHTTDNIDNAFGGGTEVVVKG", "EC50 (read off the curve)": "~2 nM"}

For the binder shown here, Molecule 20 (rbIgG of 1143) (antibody, V domains shown, Rabbit IgG format; also called ICOS (1143); clone 1143) VH: QSLEESGGDLVKPGASLTLTCKASGFDFSSAYDMCWVRQAPGKGLEWIGCVYYGDGITYYATWAKGRFTISKTSSTTVPLQMTSLTAADTATYFCARGAFLGSSYYLSLWGQGTLVTVSS VL: AIDMTQTPASVEAAVGGTVTINCQASENIYNWLAWYQQKPGQPPKLLIYDASKLASGVPSRFSASGSGTQFTLTISAVECADAATYYCQQAYTYGNIDNAFGGGTEVVVSG , give the reported EC50 (read off the curve). ~0.4 nM
